Cited source: paper PMC11200585

- measurement_description: In vitro metabolic stability
- Format: in vitro ADME
- particulars: pH 7.4; Mouse liver microsomes
Recorded half-life at 0.5 µM for the following compounds
parameter_measured: half-life at 0.5 µM (min)

>>> test_value("CCOc1ccccc1NC1=C(Cl)C(=O)c2nc(C)ccc2C1=O")
5.5
>>> test_value("COc1ccccc1NC1=C(Cl)C(=O)c2nc(C)ccc2C1=O")
20.5

* * *

- Test system: OVCAR-8
- measurement_description: NCI-60 five-dose assay (ovarian cancer)
- Type: cell-based, human
- particulars: Homo sapiens, 48 h, SRB, read-out: LC50 (the source's name)
parameter_measured: CC50 (µM)

>>> test_value("CCOc1ccc(NC2=C(Cl)C(=O)c3nc(C)ccc3C2=O)cc1 [AQQ3]")
5.77
>>> test_value("COc1cc(NC2=C(Cl)C(=O)c3nc(C)ccc3C2=O)cc(OC)c1 [AQQ5]")
6.56
>>> test_value("CCOc1ccccc1NC1=C(Cl)C(=O)c2nc(C)ccc2C1=O [AQQ2]")
5.7
>>> test_value("COc1ccccc1NC1=C(Cl)C(=O)c2nc(C)ccc2C1=O [AQQ1]")
6.59
